Origin of the recorded values: patent US10399991B2

target: Kv1.3 (Homo sapiens (Human), UniProt P22001); experiment: Patch-clamp assay for inhibitory activity on Kv1.3 (whole cell patch-clamp recording); conditions: n≥2 per concentration
Sequence (P22001 whole entry): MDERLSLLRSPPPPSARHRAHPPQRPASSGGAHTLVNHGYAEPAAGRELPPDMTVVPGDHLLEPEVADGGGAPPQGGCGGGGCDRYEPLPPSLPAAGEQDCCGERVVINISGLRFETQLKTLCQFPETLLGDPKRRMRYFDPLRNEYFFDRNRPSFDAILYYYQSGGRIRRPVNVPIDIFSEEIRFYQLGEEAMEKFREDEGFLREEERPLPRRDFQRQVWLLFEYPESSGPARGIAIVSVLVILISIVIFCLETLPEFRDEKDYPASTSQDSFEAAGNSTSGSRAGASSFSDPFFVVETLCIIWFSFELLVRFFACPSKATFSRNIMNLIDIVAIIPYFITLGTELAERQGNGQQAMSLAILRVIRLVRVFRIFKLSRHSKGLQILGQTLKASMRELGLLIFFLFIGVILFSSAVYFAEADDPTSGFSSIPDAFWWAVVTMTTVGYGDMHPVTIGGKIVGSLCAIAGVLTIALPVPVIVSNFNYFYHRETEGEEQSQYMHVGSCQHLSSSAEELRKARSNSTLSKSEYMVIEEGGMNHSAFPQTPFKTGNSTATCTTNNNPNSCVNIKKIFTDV
pIC50: −log10 of the molar value.
result-type: pIC50

[
  {
    "mol-smiles": "COc1ccccc1-c1c(C)c(=O)oc2c(C)c3occ(C)c3cc12",
    "measured": "≥ 6.30"
  },
  {
    "mol-smiles": "Cc1c(-c2cccnc2)c2cc3c(C)coc3c(C)c2oc1=O",
    "measured": "≥ 6.30"
  },
  {
    "mol-smiles": "COc1cccc(-c2cc(=O)oc3c(C)c4occ(C)c4cc23)c1",
    "measured": "5.52 to 5.82"
  },
  {
    "mol-smiles": "Cc1c(-c2ccccc2)c2cc3c(C)coc3c(C)c2[nH]c1=O",
    "measured": "≥ 6.30"
  },
  {
    "mol-smiles": "Cc1c(-c2ccccc2Cl)c2cc3c(C)coc3c(C)c2n(C)c1=O",
    "measured": "≥ 6.30"
  },
  {
    "mol-smiles": "Cc1c2ocnc2cc2c(-c3ccccc3)cc(=O)oc12",
    "measured": "5.52 to 5.82"
  },
  {
    "mol-smiles": "CCOc1ccccc1-c1c(C)c(=O)oc2c(C)c3occ(C)c3cc12",
    "measured": "≥ 6.30"
  },
  {
    "mol-smiles": "COc1ccccc1-c1cc(=O)oc2cc3occ(C)c3cc12",
    "measured": "5.82 to 6.30"
  },
  {
    "mol-smiles": "Cc1c2oc(=O)cc(-c3ccccc3)c2cc2c(C3CC3)coc12",
    "measured": "≥ 6.30"
  }
]

====

target: Kv1.3 (Homo sapiens (Human), UniProt P22001); assay: Patch-clamp assay for inhibitory activity on Kv1.3 (whole cell patch-clamp recording); settings: n≥2 per concentration
result-type: IC50

[
  {
    "mol-smiles": "Cc1coc2c(C)c3oc(=O)cc(-c4cccnc4)c3cc12",
    "result-type": "IC50",
    "measured": "1500 to 3000 nM"
  },
  {
    "mol-smiles": "Cc1noc2c(C)c3oc(=O)cc(-c4ccccc4)c3cc12",
    "result-type": "IC50",
    "measured": "1500 to 3000 nM"
  },
  {
    "mol-smiles": "Cc1c(-c2cccnc2)c2cc3c(C)coc3c(C)c2n(C)c1=O",
    "result-type": "IC50",
    "measured": "501 to 1500 nM"
  },
  {
    "mol-smiles": "CCc1coc2c(C)c3oc(=O)c(C)c(-c4ccccc4)c3cc12",
    "result-type": "IC50",
    "measured": "≤ 500 nM"
  },
  {
    "mol-smiles": "Cc1nc2cc3c(-c4ccccc4)cc(=O)oc3c(C)c2o1",
    "result-type": "IC50",
    "measured": "501 to 1500 nM"
  },
  {
    "mol-smiles": "Cc1c(CN(C)C)oc2c(C)c3oc(=O)cc(-c4ccccc4)c3cc12",
    "result-type": "IC50",
    "measured": "1500 to 3000 nM"
  },
  {
    "mol-smiles": "Cc1coc2cc3oc(=O)cc(-c4ccccc4Cl)c3cc12",
    "result-type": "IC50",
    "measured": "501 to 1500 nM"
  },
  {
    "mol-smiles": "Cc1coc2c(C)c3oc(=O)cc(-c4ccccc4Cl)c3cc12",
    "result-type": "IC50",
    "measured": "1500 to 3000 nM"
  },
  {
    "mol-smiles": "COc1cccc(-c2cc(=O)oc3cc4occ(C)c4cc23)c1",
    "result-type": "IC50",
    "measured": "501 to 1500 nM"
  },
  {
    "mol-smiles": "Cc1coc2c(C)c3oc(=O)cc(-c4ccccn4)c3cc12",
    "result-type": "IC50",
    "measured": "1500 to 3000 nM"
  },
  {
    "mol-smiles": "COc1c2occ(C)c2cc2c(-c3ccccc3)cc(=O)oc12",
    "result-type": "IC50",
    "measured": "1500 to 3000 nM"
  },
  {
    "mol-smiles": "COc1ccncc1-c1c(C)c(=O)oc2c(C)c3occ(C)c3cc12",
    "result-type": "IC50",
    "measured": "1500 to 3000 nM"
  },
  {
    "mol-smiles": "CNCc1nc2cc3c(-c4ccccc4)cc(=O)oc3c(C)c2o1",
    "result-type": "IC50",
    "measured": "1500 to 3000 nM"
  },
  {
    "mol-smiles": "Cc1c(-c2ccccc2Cl)c2cc3c(C)coc3c(C)c2oc1=O",
    "result-type": "IC50",
    "measured": "≤ 500 nM"
  },
  {
    "mol-smiles": "Cc1c(-c2ccccc2F)c2cc3c(C)coc3c(C)c2n(C)c1=O",
    "result-type": "IC50",
    "measured": "≤ 500 nM"
  },
  {
    "mol-smiles": "Cc1c(-c2ccccc2Cl)c2cc3c(C)coc3c(C)c2[nH]c1=O",
    "result-type": "IC50",
    "measured": "≤ 500 nM"
  },
  {
    "mol-smiles": "Cc1c(-c2ccccc2)c2cc3c(C)csc3c(C)c2oc1=O",
    "result-type": "IC50",
    "measured": "≤ 500 nM"
  },
  {
    "mol-smiles": "Cc1ccccc1-c1c(Br)c(=O)[nH]c2c(C)c3occ(C)c3cc12",
    "result-type": "IC50",
    "measured": "501 to 1500 nM"
  },
  {
    "mol-smiles": "Cc1c(-c2ccccc2F)c2cc3c(C)coc3c(C)c2oc1=O",
    "result-type": "IC50",
    "measured": "≤ 500 nM"
  },
  {
    "mol-smiles": "Cc1nc2cc3c(-c4ccccc4)c(C)c(=O)oc3c(C)c2o1",
    "result-type": "IC50",
    "measured": "501 to 1500 nM"
  }
]

====

target: Kv1.3 (Homo sapiens (Human)); assay: Patch-clamp assay for inhibitory activity on Kv1.3 (whole cell patch-clamp recording); conditions: n≥2 per concentration
Measured IC50 accompanies every entry in the list below.

[
  {
    "mol-smiles": "Cc1c(-c2ccccc2)c2cc3c(C)c(CN(C)C)oc3c(C)c2oc1=O",
    "IC50": "1500 to 3000 nM"
  },
  {
    "mol-smiles": "Cc1coc2nc3oc(=O)cc(-c4ccccc4)c3cc12",
    "IC50": "501 to 1500 nM"
  },
  {
    "mol-smiles": "Cc1c(-c2cccnc2)c2cc3c(C)noc3c(C)c2n(C)c1=O",
    "IC50": "1500 to 3000 nM"
  },
  {
    "mol-smiles": "Cc1ccccc1-c1c(C)c(=O)n(C)c2c(C)c3occ(C)c3cc12",
    "IC50": "501 to 1500 nM"
  },
  {
    "mol-smiles": "COc1ccccc1-c1cc(=O)oc2c(C)c3occ(C)c3cc12",
    "IC50": "≤ 500 nM"
  },
  {
    "mol-smiles": "Cc1cccc(-c2cc(=O)oc3cc4occ(C)c4cc23)c1",
    "IC50": "501 to 1500 nM"
  },
  {
    "mol-smiles": "Cc1coc2c(C)c3c(cc12)c(-c1ccccc1)c(Br)c(=O)n3C",
    "IC50": "≤ 500 nM"
  },
  {
    "mol-smiles": "Cc1c(-c2cccnc2)c2cc3c(C)coc3c(C)c2[nH]c1=O",
    "IC50": "≤ 500 nM"
  },
  {
    "mol-smiles": "Cc1coc2c(C)c3oc(=O)cc(-c4cccc(C(F)(F)F)c4)c3cc12",
    "IC50": "1500 to 3000 nM"
  }
]
